targetOrSystem: Rho-associated protein kinase 1 (Homo sapiens, UniProt Q13464)
Sequence (Q13464 whole entry): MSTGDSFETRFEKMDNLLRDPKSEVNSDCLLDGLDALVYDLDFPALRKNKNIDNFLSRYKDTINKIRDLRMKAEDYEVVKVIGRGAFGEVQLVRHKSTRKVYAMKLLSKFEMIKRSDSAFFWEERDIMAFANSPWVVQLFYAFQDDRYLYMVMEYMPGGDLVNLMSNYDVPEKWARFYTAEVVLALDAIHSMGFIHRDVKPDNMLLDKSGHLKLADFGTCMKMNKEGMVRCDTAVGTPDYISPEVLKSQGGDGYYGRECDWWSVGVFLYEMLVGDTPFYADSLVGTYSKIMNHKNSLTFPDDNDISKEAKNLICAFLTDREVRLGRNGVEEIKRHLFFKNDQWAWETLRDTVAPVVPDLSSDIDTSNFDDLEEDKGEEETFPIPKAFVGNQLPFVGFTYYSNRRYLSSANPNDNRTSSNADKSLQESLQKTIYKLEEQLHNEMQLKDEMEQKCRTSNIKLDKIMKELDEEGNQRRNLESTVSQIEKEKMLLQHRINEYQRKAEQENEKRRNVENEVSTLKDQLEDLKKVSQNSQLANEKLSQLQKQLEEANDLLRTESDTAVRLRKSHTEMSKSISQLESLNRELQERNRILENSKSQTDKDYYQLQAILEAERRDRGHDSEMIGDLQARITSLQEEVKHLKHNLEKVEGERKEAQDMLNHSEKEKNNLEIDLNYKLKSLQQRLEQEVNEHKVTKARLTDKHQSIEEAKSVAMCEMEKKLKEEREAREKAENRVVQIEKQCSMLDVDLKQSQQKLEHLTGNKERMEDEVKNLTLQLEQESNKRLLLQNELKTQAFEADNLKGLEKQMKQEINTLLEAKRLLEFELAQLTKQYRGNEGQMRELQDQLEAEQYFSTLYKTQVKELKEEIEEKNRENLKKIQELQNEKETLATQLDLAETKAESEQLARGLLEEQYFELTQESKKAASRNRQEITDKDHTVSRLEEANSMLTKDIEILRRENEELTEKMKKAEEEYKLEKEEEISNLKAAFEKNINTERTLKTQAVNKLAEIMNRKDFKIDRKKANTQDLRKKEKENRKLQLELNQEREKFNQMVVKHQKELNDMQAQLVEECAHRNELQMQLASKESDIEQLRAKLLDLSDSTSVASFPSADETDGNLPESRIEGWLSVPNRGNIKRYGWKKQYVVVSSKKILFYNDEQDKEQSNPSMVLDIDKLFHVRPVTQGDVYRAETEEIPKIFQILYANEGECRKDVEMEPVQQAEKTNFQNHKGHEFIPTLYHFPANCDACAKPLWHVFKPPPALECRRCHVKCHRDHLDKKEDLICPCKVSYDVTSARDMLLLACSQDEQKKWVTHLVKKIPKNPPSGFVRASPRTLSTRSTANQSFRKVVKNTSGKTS
readoutName: pIC50
Quick note: pIC50 means taking -log10 of the concentration in moles per liter.

According to the records, this compound COc1ccc(-c2cc3c(N[C@@H]4CC[C@](C)(N)C4(C)C)c(C(N)=O)cnn3c2)cn1 displays pIC50 of 7.02

====

pEC50 reference
System: Mus musculus
testMethodNotes: In vivo inhibition of JAK1/JAK3 in Balb/c mouse assessed as reduction in IL15-induced STAT5 phosphorylation at […], po after 4 hrs
Format: functional, organism-based
Quick note: pEC50 means taking -log10 of the concentration in moles per liter.

- structureAsSmiles: "CC1(C)[C@H](Nc2c(C(N)=O)cnn3cc(-c4ccccc4)cc23)CC[C@]1(C)N"
  pEC50: 6.90

Turning to the following compound.
Short answer on Mus musculus for COc1ccc(-c2cc3c(N[C@@H]4CC[C@](C)(N)C4(C)C)c(C(N)=O)cnn3c2)cn1 , pEC50: 7.17

====

testMethodNotes: Protein binding in human plasma
Type: ADME, cell-free
studyConditions: read-out: PPB (converted)
readoutName: fraction unbound
Provide a numeric answer; units are not to be included.

According to the records, this compound COc1ccc(-c2cc3c(N[C@@H]4CC[C@](C)(N)C4(C)C)c(C(N)=O)cnn3c2)cn1 displays fraction unbound of 0.1

====

testMethodNotes: Oral bioavailability in Sprague-Dawley rat at 10 mg/kg
Format: ADME, organism-based
studyConditions: in vivo
readoutName: bioavailability (%)
Supply the numeric figure in %, leaving out any unit text.

According to the records, this compound COc1ccc(-c2cc3c(N[C@@H]4CC[C@](C)(N)C4(C)C)c(C(N)=O)cnn3c2)cn1 displays bioavailability of 44

====

testMethodNotes: Tmax in BALB/c mouse at 10 mg/kg, po
Assay type: ADME, organism-based
studyConditions: in vivo
readoutName: Tmax (h)
Supply the numeric figure in h, leaving out any unit text.

According to the records, this molecule COc1ccc(-c2cc3c(N[C@@H]4CC[C@](C)(N)C4(C)C)c(C(N)=O)cnn3c2)cn1 displays Tmax of 4

====

targetOrSystem: Tyrosine-protein kinase JAK3 (Homo sapiens, UniProt P52333)
Sequence (P52333 whole entry): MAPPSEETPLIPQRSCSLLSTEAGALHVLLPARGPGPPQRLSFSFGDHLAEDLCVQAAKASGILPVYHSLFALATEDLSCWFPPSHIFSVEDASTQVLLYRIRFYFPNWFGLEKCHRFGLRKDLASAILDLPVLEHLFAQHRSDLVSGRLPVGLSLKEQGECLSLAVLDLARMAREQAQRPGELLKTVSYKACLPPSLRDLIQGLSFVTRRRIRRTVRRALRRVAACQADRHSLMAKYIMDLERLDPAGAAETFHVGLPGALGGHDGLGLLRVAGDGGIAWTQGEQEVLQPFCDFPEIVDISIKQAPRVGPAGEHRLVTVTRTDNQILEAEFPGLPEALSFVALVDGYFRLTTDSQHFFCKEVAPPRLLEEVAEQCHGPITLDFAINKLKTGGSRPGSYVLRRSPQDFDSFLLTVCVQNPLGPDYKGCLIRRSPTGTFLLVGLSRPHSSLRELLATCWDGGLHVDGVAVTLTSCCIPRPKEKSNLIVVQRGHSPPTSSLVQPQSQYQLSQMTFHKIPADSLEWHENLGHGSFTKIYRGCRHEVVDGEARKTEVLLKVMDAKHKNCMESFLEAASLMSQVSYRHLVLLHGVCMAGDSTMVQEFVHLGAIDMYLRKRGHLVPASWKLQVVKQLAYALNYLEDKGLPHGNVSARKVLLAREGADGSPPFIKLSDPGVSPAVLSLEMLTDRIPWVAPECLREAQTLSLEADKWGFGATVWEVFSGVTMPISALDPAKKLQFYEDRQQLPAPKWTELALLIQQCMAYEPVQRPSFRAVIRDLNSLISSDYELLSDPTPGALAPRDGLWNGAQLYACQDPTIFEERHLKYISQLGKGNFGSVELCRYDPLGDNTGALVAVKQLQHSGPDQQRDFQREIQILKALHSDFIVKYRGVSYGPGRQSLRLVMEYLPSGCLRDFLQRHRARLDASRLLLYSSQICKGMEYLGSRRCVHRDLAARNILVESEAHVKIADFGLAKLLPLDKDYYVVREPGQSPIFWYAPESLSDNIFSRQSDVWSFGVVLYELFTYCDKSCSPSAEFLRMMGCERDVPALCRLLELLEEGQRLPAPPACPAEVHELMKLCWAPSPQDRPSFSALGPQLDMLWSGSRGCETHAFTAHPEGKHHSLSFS
readoutName: pIC50
Quick note: pIC50 means taking -log10 of the concentration in moles per liter.

Check out these entries, answers already filled in.
- structureAsSmiles: "COc1ccccc1-c1cc2c(N[C@@H]3CC[C@](C)(N)C3(C)C)c(C(N)=O)cnn2c1"
  targetOrSystem: "Tyrosine-protein kinase JAK3 (Homo sapiens, UniProt P52333)"
  reportedResult: 8.89
- structureAsSmiles: "Cc1ccc(-c2cc3c(N[C@@H]4CC[C@](C)(N)C4(C)C)c(C(N)=O)cnn3c2)cn1"
  targetOrSystem: "Tyrosine-protein kinase JAK3 (Homo sapiens, UniProt P52333)"
  reportedResult: 9.05
- structureAsSmiles: "COc1ccc(-c2cc3c(N[C@@H]4CC[C@](C)(N)C4(C)C)c(C(N)=O)cnn3c2)cn1"
  targetOrSystem: "Tyrosine-protein kinase JAK3 (Homo sapiens, UniProt P52333)"
  reportedResult: 9.05
- structureAsSmiles: "CC(C)Oc1ccc(-c2cc3c(N[C@@H]4CC[C@](C)(N)C4(C)C)c(C(N)=O)cnn3c2)cn1"
  targetOrSystem: "Tyrosine-protein kinase JAK3 (Homo sapiens, UniProt P52333)"
  reportedResult: 9.30
- structureAsSmiles: "CC1(C)[C@H](Nc2c(C(N)=O)cnn3cc(-c4ccc(C#N)nc4)cc23)CC[C@]1(C)N"
  targetOrSystem: "Tyrosine-protein kinase JAK3 (Homo sapiens, UniProt P52333)"
  reportedResult: 9.00

According to the records, this molecule CC1(C)[C@H](Nc2c(C(N)=O)cnn3cc(-c4ccccc4)cc23)CC[C@]1(C)N displays pIC50 of 9.05

According to the records, this molecule CC1(C)[C@H](Nc2c(C(N)=O)cnn3cc(-c4ccc(Cl)cc4)cc23)CC[C@]1(C)N displays pIC50 of 9.10

According to the records, this molecule CC1(C)[C@H](Nc2c(C(N)=O)cnn3cc(-c4cccnc4)cc23)CC[C@]1(C)N displays pIC50 of 9.22

According to the records, this molecule Cc1ccccc1-c1cc2c(N[C@@H]3CC[C@](C)(N)C3(C)C)c(C(N)=O)cnn2c1 displays pIC50 of 8.74

====

testMethodNotes: Volume of distribution at steady state in BALB/c mouse at 2 mg/kg, iv
Format: ADME, organism-based
studyConditions: in vivo, read-out: Vdss
readoutName: Vd (L/kg)
Supply the numeric figure in L/kg, leaving out any unit text.

According to the records, this molecule COc1ccc(-c2cc3c(N[C@@H]4CC[C@](C)(N)C4(C)C)c(C(N)=O)cnn3c2)cn1 displays Vd of 8.2

====

testMethodNotes: Cmax in mouse at 10 mg/kg, po
Format: ADME, organism-based
Parameters: dose 10 mg/kg, route oral
studyConditions: in vivo
Cmax reference

- structureAsSmiles: "CC1(C)[C@H](Nc2c(C(N)=O)cnn3cc(-c4ccncc4F)cc23)CC[C@]1(C)N"
  Cmax: "< 250 nM"

According to the records, this compound CC1(C)[C@H](Nc2c(C(N)=O)cnn3cc(-c4ccncc4)cc23)CC[C@]1(C)N displays Cmax of < 250 nM

According to the records, this compound CC1(C)[C@H](Nc2c(C(N)=O)cnn3cc(-c4cc[nH]n4)cc23)CC[C@]1(C)N displays Cmax of < 250 nM

====

testMethodNotes: Protein binding in mouse plasma at 10 mg/kg, po
Format: ADME, organism-based
studyConditions: read-out: PPB (converted)
fraction unbound reference
Provide a numeric answer; units are not to be included.

Check out these entries, answers already filled in.
- structureAsSmiles: "CC1(C)[C@H](Nc2c(C(N)=O)cnn3cc(-c4ccncc4)cc23)CC[C@]1(C)N"
  fraction unbound: 0.31
- structureAsSmiles: "COc1ccc(-c2cc3c(N[C@@H]4CC[C@](C)(N)C4(C)C)c(C(N)=O)cnn3c2)cn1"
  fraction unbound: 0.07
- structureAsSmiles: "CC1(C)[C@H](Nc2c(C(N)=O)cnn3cc(-c4cc[nH]n4)cc23)CC[C@]1(C)N"
  fraction unbound: 0.51

Turning to the following compound.
According to the records, this compound CC1(C)[C@H](Nc2c(C(N)=O)cnn3cc(-c4ccncc4F)cc23)CC[C@]1(C)N displays fraction unbound of 0.22

====

targetOrSystem: JAK3/JAK1 (Homo sapiens, UniProt P23458+P52333)
testMethodNotes: Inhibition of JAK1/JAK3 in human whole blood assessed as reduction in IL-2 induced IFN-gamma production after 18 hrs by ELISA
Assay type: protein-complex assay
readoutName: IC50 (nM)
Supply the numeric figure in nM, leaving out any unit text.

- structureAsSmiles: "CC1(C)[C@H](Nc2c(C(N)=O)cnn3cc(-c4ccccc4)cc23)CC[C@]1(C)N"
  scaleUnit: "nM"
  reportedResult: 200
- structureAsSmiles: "CC1(C)[C@H](Nc2c(C(N)=O)cnn3cc(-c4cncc(F)c4)cc23)CC[C@]1(C)N"
  scaleUnit: "nM"
  reportedResult: 220
- structureAsSmiles: "CCOc1ccc(-c2cc3c(N[C@@H]4CC[C@](C)(N)C4(C)C)c(C(N)=O)cnn3c2)cn1"
  scaleUnit: "nM"
  reportedResult: 800

Turning to the following compound.
According to the records, this compound CC1(C)[C@H](Nc2c(C(N)=O)cnn3cc(-c4ccc(C#N)cc4)cc23)CC[C@]1(C)N displays IC50 of 66
